- target.or.system: KRas G12D (Homo sapiens, UniProt P01116, G12D)
- Sequence (P01116 1-169 isoform P01116-2 G12D): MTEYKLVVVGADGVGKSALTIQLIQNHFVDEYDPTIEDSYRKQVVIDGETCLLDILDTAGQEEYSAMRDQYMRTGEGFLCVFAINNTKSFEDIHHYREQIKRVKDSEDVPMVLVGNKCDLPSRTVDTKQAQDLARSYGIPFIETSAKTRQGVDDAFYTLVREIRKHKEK
- measurement.notes: biochemical
pIC50: −log10 of the molar value.
Measured pIC50 accompanies every entry in the list below.
assay.endpoint: pIC50

{"columns": ["compound", "operator", "observed.measurement"],
 "data": [
  ["CC1(CNc2nc(OCC34CCCN3CCC4)nc3c(F)c(-c4cccc5cccc(F)c45)ncc23)CCC1 [Example 19]", "≤", 4.00],
  ["CCc1c(F)ccc2cc(O)cc(-c3ncc4c(N5C[C@H]6C[C@@H](C5)[C@H](CO)[C@H]6O)nc(OC[C@@]56CCCN5C[C@H](F)C6)nc4c3F)c12 [Example 486]", "=", 6.47],
  ["CCc1cccc2cccc(-c3ncc4c(N5CCCC6(CNC(=O)C6)C5)nc(OCC56CCCN5CCC6)nc4c3F)c12 (stereo not shown) [Example 286]", "=", 6.50],
  ["C#Cc1c(F)ccc2cccc(-c3ncc4c(N5CCC[C@@](C)(O)C5)nc(OCC56CCCN5CCC6)nc4c3F)c12 [Example 14]", "=", 7.54],
  ["Cc1c(N)nn2c1CN(c1nc(OCC34CCCN3CCC4)nc3c(F)c(-c4cccc5cccc(F)c45)ncc13)CCC2 [Example 278]", "=", 6.10],
  ["O=S1(=O)NCC2(CCCN(c3nc(OC[C@@]45CCCN4C[C@H](F)C5)nc4c(F)c(-c5cc(O)cc6ccc(F)c(Br)c56)ncc34)C2)N1 (stereo partly shown) [Example 411]", "≥", 8.70],
  ["CCc1c(F)ccc2cc(O)cc(-c3ncc4c(N5CCCCC5)nc(OC[C@@H]5C[C@@H](O)CN5C)nc4c3F)c12 [Example 6]", "=", 7.54],
  ["CCc1c(F)ccc2cc(O)cc(-c3ncc4c(N5CCOCC6(CCOCC6)C5)nc(OC[C@@]56CCCN5C[C@H](F)C6)nc4c3F)c12 [Example 500]", "=", 6.63],
  ["O=C1NCC2(CCCN(c3nc(OCC45CCCN4CCC5)nc4c(F)c(-c5cccc6cccc(F)c56)ncc34)C2)N1 (stereo not shown) [Example 45]", "=", 7.05],
  ["CCc1c(F)ccc2cc(O)cc(-c3ncc4c(N5C[C@H](O)CC[C@H](O)C5)nc(OC[C@@]56CCCN5C[C@H](F)C6)nc4c3F)c12 [Example 491]", "=", 8.40],
  ["CCc1c(F)ccc2cc(O)cc(-c3ncc4c(NCCC5CNC(=O)C5)nc(OC[C@@]56CCCN5C[C@H](F)C6)nc4c3F)c12 (stereo partly shown) [Example 376]", "=", 7.80],
  ["OC1CCCCN(c2nc(OCC34CCCN3CCC4)nc3c(F)c(-c4cccc5cccc(F)c45)ncc23)C1 (stereo not shown) [Example 44]", "=", 5.49],
  ["Fc1c(-c2cccc3cccc(F)c23)ncc2c(NCCc3c[nH]c4ncccc34)nc(OCC34CCCN3CCC4)nc12 [Example 212]", "=", 4.81]
]}

###

- target.or.system: KRas G12S (Homo sapiens, UniProt P01116, G12S);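 further: TR-FRET displacement binding to KRas, read after one hour incubation at room temperature, IC50 from four-parameter fit of percent of control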
- Sequence (P01116 1-169 isoform P01116-2 G12S): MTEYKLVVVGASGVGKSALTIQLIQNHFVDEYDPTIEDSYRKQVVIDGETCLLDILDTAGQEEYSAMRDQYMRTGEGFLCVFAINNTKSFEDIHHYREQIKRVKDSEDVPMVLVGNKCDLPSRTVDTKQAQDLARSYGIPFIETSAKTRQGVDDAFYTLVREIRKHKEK
- measurement.notes: biochemical

{"columns": ["compound", "target.or.system", "IC50"],
 "data": [
  ["O=C1CC2(CCCN(c3nc(OCC45CCCN4CCC5)nc4c(F)c(-c5cccc6cccc(C(F)(F)F)c56)ncc34)C2)N1 (stereo not shown) [Example 467]", "KRas G12S (Homo sapiens, UniProt P01116, G12S)", "1140 nM"],
  ["CCc1cccc2cccc(-c3ncc4c(NCc5cn[nH]c5)nc(OCC56CCCN5CCC6)nc4c3F)c12 [Example 287]", "KRas G12S (Homo sapiens, UniProt P01116, G12S)", "590 nM"],
  ["C#Cc1cccc2cccc(-c3ncc4c(N5CCCC(CS(N)(=O)=O)C5)nc(OCC56CCCN5CCC6)nc4c3F)c12 (stereo not shown) [Example 437]", "KRas G12S (Homo sapiens, UniProt P01116, G12S)", "904 nM"],
  ["Oc1nc(CCCNc2nc(OCC34CCCN3CCC4)nc3c(F)c(-c4cccc5cccc(Cl)c45)ncc23)n[nH]1 [Example 103]", "KRas G12S (Homo sapiens, UniProt P01116, G12S)", "2450 nM"]
]}

###

- target.or.system: KRas Q61H (Homo sapiens, UniProt P01116, Q61H)
- Construct: Biotinylated KRas (corresponding to amino acids 1-169, produced at Accelegan Inc.); biotin (biotinylated); purchased Accelegan Inc
- Sequence (P01116 1-169 isoform P01116-2 Q61H): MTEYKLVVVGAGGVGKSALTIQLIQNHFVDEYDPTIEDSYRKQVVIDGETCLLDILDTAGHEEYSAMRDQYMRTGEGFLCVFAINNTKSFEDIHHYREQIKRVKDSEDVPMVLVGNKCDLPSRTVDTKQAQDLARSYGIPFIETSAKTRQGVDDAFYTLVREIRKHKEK
- measurement.notes: KRas binding assay (TR-FRET displacement)

{"columns": ["compound", "target.or.system", "IC50 [nM]"],
 "data": [
  ["Fc1c(-c2cccc3cccc(F)c23)ncc2c(N3CCCC4(CCC4)C3)nc(OCC34CCCN3CCC4)nc12", "KRas Q61H (Homo sapiens, UniProt P01116, Q61H)", 25900],
  ["O=S1(=O)CC(CNc2nc(OCC34CCCN3CCC4)nc3c(F)c(-c4cccc5cccc(F)c45)ncc23)C1", "KRas Q61H (Homo sapiens, UniProt P01116, Q61H)", 11100],
  ["OCC1CN(c2nc(OCC34CCCN3CCC4)nc3c(F)c(-c4cccc5cccc(F)c45)ncc23)CCC1O (stereo not shown)", "KRas Q61H (Homo sapiens, UniProt P01116, Q61H)", 8240],
  ["OC1CC2CC(C1)N(c1nc(OCC34CCCN3CCC4)nc3c(F)c(-c4cccc5cccc(Cl)c45)ncc13)C2 (stereo not shown)", "KRas Q61H (Homo sapiens, UniProt P01116, Q61H)", 2340]
]}

###

Measured log10(IC50) accompanies every entry in the list below.
- target.or.system: KRas Q61H (Homo sapiens, UniProt P01116, Q61H)
- Construct: Biotinylated KRas (corresponding to amino acids 1-169, produced at Accelegan Inc.); biotin (biotinylated); purchased Accelegan Inc
- measurement.notes: KRas binding assay (TR-FRET displacement);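 further: TR-FRET signal read after one hour at room temperature, IC50 derived by four-parameter fitting of percent-of-control values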
assay.endpoint: log10(IC50) (log10 of the value in nM)

{"columns": ["compound", "observed.measurement"],
 "data": [
  ["Fc1c(-c2cccc3cccc(F)c23)ncc2c(Nc3ccc4[nH]ncc4c3)nc(OCC34CCCN3CCC4)nc12", 4.62],
  ["CCc1c(F)ccc2cc(O)cc(-c3ncc4c(NCc5n[nH]cc5C)nc(OC[C@@]56CCCN5C[C@H](F)C6)nc4c3F)c12", 1.23],
  ["OCC12CC(Nc3nc(OCC45CCCN4CCC5)nc4c(F)c(-c5cccc6cccc(F)c56)ncc34)(C1)C2", 4.04],
  ["CC1(O)CCCN(c2nc(OCC3(CN4CCCC4)CC3)nc3c(F)c(-c4cccc5cccc(F)c45)ncc23)C1 (centres unmarked)", 3.78],
  ["CCc1c(F)ccc2cc(O)cc(-c3ncc4c(N5CCCCC5)nc(OC[C@@H]5C[C@@H](O)CN5C)nc4c3F)c12", 1.36],
  ["Fc1c(-c2cccc3cccc(F)c23)ncc2c(NCCCc3cc[nH]n3)nc(OCC34CCCN3CCC4)nc12", 3.77],
  ["Fc1c(-c2cccc3cccc(F)c23)ncc2c(NCc3ccc4[nH]cnc4c3)nc(OCC34CCCN3CCC4)nc12", 4.03],
  ["CCc1c(F)ccc2cccc(-c3ncc4c(N5CCC[C@@](C)(O)C5)nc(OCC56CCCN5CCC6)nc4c3F)c12", 1.72],
  ["C#Cc1c(F)ccc2cccc(-c3ncc4c(N5CCC[C@@](C)(O)C5)nc(OC[C@@]56CCCN5C[C@H](F)C6)nc4c3F)c12", 1.70],
  ["N#Cc1ccccc1N1CCN(c2nc(OCC34CCCN3CCC4)nc3c(F)c(-c4cccc5cccc(F)c45)ncc23)CC1", 4.92],
  ["Fc1c(-c2cccc3cccc(F)c23)ncc2c(NCCCn3cnnn3)nc(OCC34CCCN3CCC4)nc12", 4.44],
  ["NS(=O)(=O)CC1CN(c2nc(OCC34CCCN3CCC4)nc3c(F)c(-c4cccc5cccc(F)c45)ncc23)CCO1 (centres unmarked)", 2.91]
]}

###

- target.or.system: KRas G12D (Homo sapiens, UniProt P01116, G12D);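 further: TR-FRET displacement binding assay on KRas, read after a one-hour incubation at room temperature, IC50 fitted from percent-of-control values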
- measurement.notes: biochemical
assay.endpoint: IC50 (nM)

{"columns": ["compound", "assay.endpoint", "operator", "observed.measurement"],
 "data": [
  ["CN(C)CC1(COc2nc(N3CCC[C@@](C)(O)C3)c3cnc(-c4cc(O)cc(Cl)c4C4CC4)c(F)c3n2)CC1 [Example 517]", "IC50", "≤", 2],
  ["CCc1c(F)ccc2cc(O)cc(-c3ncc4c(N5CCCC6(CCC(O)C6)C5)nc(OC[C@@]56CCCN5C[C@H](F)C6)nc4c3F)c12 (stereo partly drawn) [Example 510]", "IC50", "=", 10],
  ["O[C@@H]1C[C@H](O)CN(c2nc(OCC34CCCN3CCC4)nc3c(F)c(-c4cccc5cccc(F)c45)ncc23)C1 [Example 89]", "IC50", "=", 2280]
]}

Data credit: patent US12398154B2
